- procedure text: pKa of garamine
- Assay type: physicochemical
experimental endpoint: pKa
Enter a number only.

// query Value lookup for pKa; key = CN[C@@H]1[C@@H](O)[C@@H](O[C@@H]2[C@@H](O)[C@H](O)[C@@H](N)C[C@H]2N)OC[C@]1(C)O [Garamine]
// result 8.5

---

- System: Trichomonas Vaginalis
- procedure text: In vitro Activity Against Trichomonas Vaginalis, Table II
- Assay type: cell-based
- experimental parameters: 24 hr., read-out: Minimal Cidal Level
experimental endpoint: MBC (µg/mL)
Write the value in µg/mL as a bare number.

// query Value lookup for MBC; key = CN[C@@H]1[C@@H](O)[C@@H](O[C@@H]2[C@@H](O)[C@H](O[C@H]3O[C@H](CO)[C@@H](O)C[C@H]3N)[C@@H](N)C[C@H]2N)OC[C@]1(C)O
// result 10

***
// query Value lookup for MBC; key = CCN[C@H]1[C@@H](O[C@H]2[C@H](O)[C@@H](O[C@H]3OC[C@](C)(O)[C@H](NC)[C@H]3O)[C@H](N)C[C@@H]2N)O[C@H](CO)[C@@H](O)[C@@H]1O
// result 10

// query Value lookup for MBC; key = CN[C@@H]1[C@@H](O)[C@@H](O[C@@H]2[C@@H](O)[C@H](O[C@H]3O[C@H](CO)[C@@H](O)[C@H](O)[C@H]3O)[C@@H](N)C[C@H]2N)OC[C@]1(C)O
// result 25

// query Value lookup for MBC; key = CN[C@@H]1[C@@H](O)[C@@H](O[C@@H]2[C@@H](O)[C@H](O[C@H]3O[C@H](CO)[C@@H](O)[C@H](O)[C@H]3N)[C@@H](N)C[C@H]2N)OC[C@]1(C)O (stereo in doubt)
// result 10

---

Form field: MIC (one value per entry).
- Test system: Klebsiella pneumoniae (N,M resistant)
- procedure text: Minimal Inhibitory Concentration (MIC), Table I
- Assay type: cell-based

In the examples that follow, each entry is paired with its recorded MIC.
// query Value lookup for MIC; key = CN[C@@H]1[C@@H](O)[C@@H](O[C@@H]2[C@@H](O)[C@H](O[C@H]3O[C@H](CO)[C@@H](O)C[C@H]3N)[C@@H](N)C[C@H]2N)OC[C@]1(C)O
// result 0.8 to 3 µg/mL

// query Value lookup for MIC; key = CCN[C@@H]1C[C@H](O)[C@@H](CO)O[C@@H]1O[C@H]1[C@H](O)[C@@H](O[C@H]2OC[C@](C)(O)[C@H](NC)[C@H]2O)[C@H](N)C[C@@H]1N
// result 3 to 7.5 µg/mL

// query Value lookup for MIC; key = CNC[C@H]1O[C@H](O[C@H]2[C@H](O)[C@@H](O[C@H]3OC[C@](C)(O)[C@H](NC)[C@H]3O)[C@H](N)C[C@@H]2N)[C@H](O)C[C@@H]1O
// result 0.3 to 0.75 µg/mL

// query Value lookup for MIC; key = CN[C@@H]1[C@@H](O)[C@@H](O[C@@H]2[C@@H](O)[C@H](O[C@H]3O[C@H](CN)[C@@H](O)C[C@H]3N)[C@@H](N)C[C@H]2N)OC[C@]1(C)O [3'-deoxy-JI-20A]
// result 0.08 µg/mL

// query Value lookup for MIC; key = CN[C@@H]1[C@@H](O)[C@@H](O[C@@H]2[C@@H](O)[C@H](O[C@H]3O[C@H](CN)[C@@H](O)[C@H](O)[C@H]3N)[C@@H](N)C[C@H]2N)OC[C@]1(C)O [JI-20A]
// result > 25 µg/mL

// query Value lookup for MIC; key = CCN[C@H]1[C@@H](O[C@H]2[C@H](O)[C@@H](O[C@H]3OC[C@](C)(O)[C@H](NC)[C@H]3O)[C@H](N)C[C@@H]2N)O[C@H](CO)[C@@H](O)[C@@H]1O
// result > 25 µg/mL

Switching to the query record.
// query Value lookup for MIC; key = CN[C@@H]1[C@@H](O)[C@@H](O[C@@H]2[C@@H](O)[C@H](O[C@H]3O[C@H](CO)[C@@H](O)[C@H](O)[C@H]3N)[C@@H](N)C[C@H]2N)OC[C@]1(C)O (stereo in doubt)
// result > 25 µg/mL
